Numbers sourced from PubChem BioAssay (NCATS).

- assay-target: Tyrosine-protein phosphatase non-receptor type substrate 1 (Homo sapiens) + Leukocyte surface antigen CD47 (Homo sapiens) (UniProt P78324+Q08722)
- Sequence (P78324 whole entry, looked up): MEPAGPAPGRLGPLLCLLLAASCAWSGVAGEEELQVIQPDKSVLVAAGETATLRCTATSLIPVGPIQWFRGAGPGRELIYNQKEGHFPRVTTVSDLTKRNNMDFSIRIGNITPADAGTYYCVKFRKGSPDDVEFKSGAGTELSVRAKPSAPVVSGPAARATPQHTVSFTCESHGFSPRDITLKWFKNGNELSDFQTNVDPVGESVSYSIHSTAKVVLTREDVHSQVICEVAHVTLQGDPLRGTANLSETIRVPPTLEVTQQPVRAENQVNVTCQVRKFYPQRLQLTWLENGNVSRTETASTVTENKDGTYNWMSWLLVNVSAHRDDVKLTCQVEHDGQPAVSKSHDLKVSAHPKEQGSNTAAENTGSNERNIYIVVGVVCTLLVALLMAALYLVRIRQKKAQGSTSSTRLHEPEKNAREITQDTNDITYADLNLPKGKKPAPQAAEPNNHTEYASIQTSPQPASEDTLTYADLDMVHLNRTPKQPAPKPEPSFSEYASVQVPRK
- Sequence (Q08722 whole entry, looked up): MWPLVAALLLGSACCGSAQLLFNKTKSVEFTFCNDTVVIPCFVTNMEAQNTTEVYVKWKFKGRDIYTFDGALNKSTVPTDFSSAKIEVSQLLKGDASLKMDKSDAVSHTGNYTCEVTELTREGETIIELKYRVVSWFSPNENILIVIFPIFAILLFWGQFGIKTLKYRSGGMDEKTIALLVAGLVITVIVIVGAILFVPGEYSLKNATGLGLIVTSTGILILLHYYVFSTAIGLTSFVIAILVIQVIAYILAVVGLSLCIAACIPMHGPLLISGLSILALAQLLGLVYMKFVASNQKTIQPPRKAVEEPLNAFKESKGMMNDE
- measurement-description: CD47-SIRPalpha protein protein interaction - Alpha assay qHTS validation (AID 1347059);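 further: bead proximity luminescence from CD47 binding SIRPalpha after compound preincubation with SIRPalpha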
- condition-summary: AlphaScreen CD47-His/biotin-SIRPalpha binding, LOPAC; series mostly up to 38.3 µM
- Description: SIRPalpha is a myeloid cell expressed immunomodulatory receptor that binds the tumor expressed immune checkpoint CD47. Therapeutic disruption of this interaction leads to immune-mediated tumor rejection. This assay was used to quantitate CD47-SIRPalpha binding biochemically and evaluate chemical libraries for novel CD47-SIRPalpha inhibitors. […] The CD47-SIRPalpha interaction was measured by AlphaScreen using affinity tag linked reagents (Ni-NTA acceptor bead and streptavidin donor bead). […]
Inconclusive results are not listed. The source made the active and inactive calls. The call rests on the fitted dose curve; in most records, active means well fitted inhibition curve with a large enough effect; inconclusive means small, poorly fitted or top-dose-only effect; inactive means flat fitted curve, though single readings scatter.
Please answer using one outcome listed in true = active, false = inactive

Check out these entries, answers already filled in.
Short answer needed: outcome of this test for "COc1nc(C)nc(Cl)c1NC1=NCCN1" ? false

Which outcome was entered for the molecule "CCOC(=O)C(C)(C)Oc1ccc(Cl)cc1" in this test? false

Test call for this molecule, please: "Clc1ccc2c(c1)C(N1CCNCC1)=Nc1ccccc1O2" false

Next, consider the following molecule.
Tell me the recorded outcome of this test for "O=C1c2c(O)ccc(O)c2C(=O)c2c(NCCNCCO)ccc(NCCNCCO)c21" . true

* * *

- measurement-description: Nrf2 qHTS screen for inhibitors: Validation (AID 493153)
- condition-summary: A549 ARE-Fluc reporter, 18-24 h; luciferase luminescence
Inconclusive results are not listed. Activity calls are given as the source filed them. Calls follow the shape of the dose curve; as a rule, active = well fitted inhibition curve with a large enough effect in the main read-out, with a control signal flat (not every such curve was filed as active); inconclusive = small, poorly fitted or top-dose-only effect, or effect the other way, or a change in a side signal; inactive = no such curve, though single readings can be large or run the other way.
The reply should name one outcome from active, inactive

Before answering, review these 8 worked examples.
Look up the recorded call for "O=c1c(-c2ccc(O)cc2)coc2cc(O)cc(O)c12" in this test. inactive

Identify the outcome logged in this assay for the molecule shown: "Fc1ccc([C@@H]2CCNC[C@H]2COc2ccc3c(c2)OCO3)cc1" inactive

Test call, this molecule: CC(C)NCC(O)c1ccc(O)c(O)c1 (stereo not drawn) inactive

Look up the recorded call for "O=C1Cc2cc(CCN3CCN(c4nsc5ccccc45)CC3)c(Cl)cc2N1" in this test. inactive

Recorded test outcome, item "CN(Cc1cnc2nc(N)nc(N)c2n1)c1ccc(C(=O)N[C@@H](CCC(=O)O)C(=O)O)cc1" active

State the result this test recorded for "Cc1cc(C(C)(C)C)cc(C)c1CC1=NCCN1" . inactive

What did the test return for "CN1CCN(C2=Nc3cc(Cl)ccc3Nc3ccccc32)CC1" ? inactive

Could you kindly confirm the outcome this assay logged for "Cn1cnc2c1c(=O)[nH]c(=O)n2C" ? inactive

Next molecule, please.
Any idea what this test logged for CC(C)NCC(O)COc1ccc(CCOCC2CC2)cc1 (stereo not drawn) ? inactive

* * *

- Tested on: MCC-13
- measurement-description: qHTS assay to identify novel small-molecules to repurpose for Merkel cell carcinoma treatment (AID 1296009); further: nearly all actives have a fitted effect of over 60% in size
- condition-summary: MCC and control cell lines, CellTiter-Glo viability, 72 h; series mostly up to 46 µM
Records with an inconclusive call do not appear. The source made the active and inactive calls. Calls follow the shape of the dose curve; as a rule, active = well fitted inhibition curve with a large enough effect; inconclusive = small, poorly fitted or top-dose-only effect; inactive = flat fitted curve, though single readings scatter.
Output constraint: value belongs to active, inactive

Please review the entries below; each comes with its answer.
Recorded call for "COc1cc2c(c(OC)c1OC)-c1ccc(OC)c(=O)cc1[C@@H](NC(C)=O)CC2" ? active

Write down the call the test reported for this compound. Item: "Nc1nnc(-c2cccc(Cl)c2Cl)c(N)n1" inactive

What classification did "Clc1ccc2nsnc2c1NC1=NCCN1" end up with in this test? inactive

***
Hi team, can someone confirm the assay call for "CNCCCC12CCC(c3ccccc31)c1ccccc12" ? inactive

Dear colleague, could you share the recorded outcome for "Cc1ccc(-c2cc(C(F)(F)F)nn2-c2ccc(S(N)(=O)=O)cc2)cc1" when you have a moment? inactive

Please let me know the test result on file for "Cc1cc(C(C)(C)C)cc(C)c1CC1=NCCN1" . inactive

Recorded test call requested for "CS(=O)(=O)Nc1ccc([N+](=O)[O-])cc1Oc1ccccc1" inactive

Fill in: this test's call for "O=C1Cc2cc(CCN3CCN(c4nsc5ccccc45)CC3)c(Cl)cc2N1" is ___ inactive

In this assay, the call recorded for "CN(C)c1nc(N(C)C)nc(N(C)C)n1" was what? inactive

Which outcome was assigned to "Clc1ccc2c(c1)C(N1CCNCC1)=Nc1ccccc1O2" in this test? inactive

Test call for this compound, please: COc1ccccc1OCCNCC(O)COc1cccc2[nH]c3ccccc3c12 (configuration not stated) inactive

Tell me the assay call for "O=C(c1ccc(OCCN2CCCCC2)cc1)c1c(-c2ccc(O)cc2)sc2cc(O)ccc12" please. inactive

Hi, sorry to bother you, what did the test record for "CC#C[C@]1(O)CC[C@H]2[C@@H]3CCC4=CC(=O)CCC4=C3[C@@H](c3ccc(N(C)C)cc3)C[C@@]21C" ? inactive

// return assay outcome for "CN(C)CCOC(c1ccccc1)c1ccccc1" inactive
